Taken from paper PMC2529378.

- Tested on: uterus of immature rats
- assay-summary: Uterotrophic assay in immature female rats
- Assay type: in vivo, Sprague Dawley rats
- condition-label: 1 g kg^−1 day^−1 s.c., 3 days, immature female rats
Listing of entries alongside the reported Uterus/body weight.
measurement-kind: Uterus/body weight

INSERT INTO assay_data (compound, test_system, numeric_readout) VALUES
  ('CCCCCCC/C=C/C(=O)O [2DEA, trans-2-decenoic acid]', 'uterus of immature rats', 0.51),
  ('C=C(CC[C@@H](C)[C@H]1CC[C@H]2[C@@H]3CC=C4C[C@@H](O)CC[C@]4(C)[C@H]3CC[C@]12C)C(C)C [24MET, 24-methylenecholesterol]', 'uterus of immature rats', 0.55),
  ('O=C(O)CCCCCCCCCO [10HDA, 10-hydroxydecanoic acid]', 'uterus of immature rats', 0.55),
  ('O=C(O)/C=C/CCCCCCCO [10H2DA, 10-hydroxy-trans-2-decenoic acid]', 'uterus of immature rats', 0.59);

----------
human ERβ (Homo sapiens, UniProt Q92731): reported IC50 for various compounds.
Sequence (Q92731 whole entry): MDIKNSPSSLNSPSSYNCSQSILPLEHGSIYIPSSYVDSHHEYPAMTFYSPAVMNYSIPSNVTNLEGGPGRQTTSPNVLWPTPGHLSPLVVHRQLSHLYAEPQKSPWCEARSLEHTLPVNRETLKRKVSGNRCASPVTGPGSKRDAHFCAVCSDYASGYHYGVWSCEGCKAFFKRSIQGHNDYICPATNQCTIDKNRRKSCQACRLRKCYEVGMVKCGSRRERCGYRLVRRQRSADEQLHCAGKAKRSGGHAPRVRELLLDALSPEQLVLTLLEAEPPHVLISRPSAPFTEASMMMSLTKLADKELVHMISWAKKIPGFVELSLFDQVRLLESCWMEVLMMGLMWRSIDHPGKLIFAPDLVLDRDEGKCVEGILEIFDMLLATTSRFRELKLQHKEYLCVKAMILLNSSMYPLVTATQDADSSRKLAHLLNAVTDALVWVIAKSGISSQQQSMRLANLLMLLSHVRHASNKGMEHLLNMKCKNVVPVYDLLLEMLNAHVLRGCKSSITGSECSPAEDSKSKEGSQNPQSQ
measurement-kind: IC50

INSERT INTO measurements (compound, result) VALUES
  ('O=C(O)CCCCCCCCCO [10HDA, 10-hydroxydecanoic acid]', '140 µM'),
  ('O=C(O)/C=C/CCCCCCCO [10H2DA, 10-hydroxy-trans-2-decenoic acid]', '90 µM'),
  ('CCCCCCC/C=C/C(=O)O [2DEA, trans-2-decenoic acid]', '17 µM'),
  ('C=C(CC[C@@H](C)[C@H]1CC[C@H]2[C@@H]3CC=C4C[C@@H](O)CC[C@]4(C)[C@H]3CC[C@]12C)C(C)C [24MET, 24-methylenecholesterol]', '6 µM');

----------
- Test system: uterus of immature rats
- assay-summary: Uterotrophic assay in immature female rats
- Assay type: in vivo, Sprague Dawley rats
- condition-label: 1 g kg^−1 day^−1 s.c., 3 days, immature female rats
Each entry below carries its recorded Body weight, mean.
measurement-kind: Body weight, mean (g)

INSERT INTO measurements (molecule, measurement_kind, numeric_readout) VALUES
  ('C=C(CC[C@@H](C)[C@H]1CC[C@H]2[C@@H]3CC=C4C[C@@H](O)CC[C@]4(C)[C@H]3CC[C@]12C)C(C)C [24MET, 24-methylenecholesterol]', 'Body weight, mean', 47.5),
  ('O=C(O)CCCCCCCCCO [10HDA, 10-hydroxydecanoic acid]', 'Body weight, mean', 45.8),
  ('CCCCCCC/C=C/C(=O)O [2DEA, trans-2-decenoic acid]', 'Body weight, mean', 45.9);
